System: SK-OV-3 ovarian
protocol.description: NCI tumour cell line growth inhibition, 48 h
Quick reference for TGI among some compounds

{"compound": "O=C1C=CC(=O)c2c1ccc1c3ccccc3n(Cc3cccc([N+](=O)[O-])c3)c21", "TGI": "> 100 µM"}
{"compound": "c1ccc2c(c1)CCc1[nH]c3c(c1-2)-c1ccccc1CC3", "TGI": "> 100 µM"}

Shift focus to the following entry.
Challenge: For the compound shown here, CC(=O)OC1CC2C3CCC4C[C@@H](NC(=O)C=C(C)C)CC[C@]4(C)C3CC[C@]2(C)[C@H]1C(C)N(C)C (stereo partly drawn) , give the reported TGI.
Response given: 7.38 µM

---

# reported GI50; entries follow
System: U251 CNS

# count of solved cases: 4
{"compound": "Clc1ccc(-c2cc(-c3ccccc3)nc(NCCNc3ccnc4cc(Cl)ccc34)n2)cc1", "GI50": "1720 nM"}
{"compound": "CC(=O)Oc1ccc(/C(=C(\\C)c2ccc(Cl)cc2)c2ccc(OCCN3CCCCC3)cc2)cc1", "GI50": "1660 nM"}
{"compound": "CCCCCCCCCCCCOC1C(CNC(=O)C2OC3OC(C)(C)OC3C2NC(=O)Nc2ccc(CC(=O)NC(Cc3ccccc3)C(=O)O)cc2)OC2OC(C)(C)OC21 (stereo not given)", "GI50": "> 25000 nM"}
{"compound": "COc1ccc(-n2ccnc2-c2cc(OC)c(OC)c(OC)c2)cc1", "GI50": "3980 nM"}

Okay, now this compound:
Challenge: What GI50 value was documented for this compound, `Cn1cc(C2=C(c3cn(C)c4ccccc34)C(=O)NC2=O)c2ccccc21` ?
Response given: 1260 nM

---

// reported TGI for each item listed
System: UACC-257 melanoma
protocol.description: NCI tumour cell line growth inhibition, 48 h

{"molecule": "COC1OC(COC(=O)c2cc(O)c(O)c(O)c2)C(OC(=O)c2cc(O)c(O)c(O)c2)C(OC(=O)c2cc(O)c(O)c(O)c2)C1OC(=O)c1cc(O)c(O)c(O)c1 (configuration not stated)", "study.system": "UACC-257 melanoma", "result": "> 100 µM"}
{"molecule": "O=C(CCCl)NNC1=NCCCN1", "study.system": "UACC-257 melanoma", "result": "> 100 µM"}
{"molecule": "O=c1ssc(Cl)c1Cl", "study.system": "UACC-257 melanoma", "result": "> 10 µM"}
{"molecule": "O=c1[nH]c(=O)n(C2OC(CO)C(O)C2O)cc1Oc1ccccc1 (configuration not stated)", "study.system": "UACC-257 melanoma", "result": "> 100 µM"}

Challenge: State the recorded TGI for this entry: CC(=O)OC12COC1CC(O)C1(C)C(=O)C(O)C3=C(C)C(O)CC(O)(C(OC(=O)c4ccccc4)C21)C3(C)C (configuration not stated)
Response given: > 100 µM

Challenge: Please report the recorded TGI for `Cn1cc(C2=C(c3cn(C)c4ccccc34)C(=O)NC2=O)c2ccccc21` .
Response given: > 25 µM

Challenge: Need TGI of `COc1ccc2nc3cc(Cl)ccc3c(Sc3ccc([N+](=O)[O-])cc3)c2c1` , thanks.
Response given: > 100 µM

Challenge: What does the record list as TGI for `COc1ccccc1/C=C1\NC(=S)N(/C=C2\C(=O)Oc3ccccc3C2=O)C1=O` ?
Response given: > 100 µM

Challenge: Can you look up the measured TGI of `O=C(Nc1ccc(/C=C/c2ccc(NC(=O)c3cc(S(=O)(=O)O)c4cccnc4c3O)cc2S(=O)(=O)O)c(S(=O)(=O)O)c1)c1cc(S(=O)(=O)O)c2cccnc2c1O` for me?
Response given: > 56.3 µM

Challenge: Need TGI, item `O=c1c2cc(Cl)cc(Cl)c2oc2nc3n(c(=O)c12)CCCS3`
Response given: > 100 µM

Challenge: Any idea what its TGI is? The molecule is `COc1ccc(-n2ccnc2-c2cc(OC)c(OC)c(OC)c2)cc1`
Response given: > 100 µM

Challenge: Given the entry `CCOP(=O)(OCC)/C(C#N)=C/c1cnc[nH]1` , report its measured TGI.
Response given: > 100 µM

---

Entries and their TGI values follow.
Test system: KM12 colon
protocol.description: NCI tumour cell line growth inhibition, 48 h

Solved entries (count: 2):
{"smiles": "CS(=O)(=O)CC(=O)c1ccccc1", "TGI": "> 100 µM"}
{"smiles": "c1ccc2c(c1)CCc1[nH]c3c(c1-2)-c1ccccc1CC3", "TGI": "> 100 µM"}

Could you now look at the following compound, please?
Challenge: // fetch KM12 colon TGI for `OCCOc1ccccc2cccc1-2`
Response given: > 100 µM

---

compounds and their reported TGI
System: KM12 colon
protocol.description: NCI tumour cell line growth inhibition, 48 h

{"compound": "Nc1cc(=O)n(-c2ccccc2)c(=S)n1-c1ccccc1", "TGI": "> 100 µM"}
{"compound": "C[N+](C)(C)CC(=O)N/N=C/c1ccncc1", "TGI": "> 100 µM"}
{"compound": "COc1cc2c(cc1OCCCCOc1cc3c(cc1OC)C(=O)N1CCC[C@H]1C(=O)N3)N=C[C@@H]1CCCN1C2=O", "TGI": "22.2 µM"}
{"compound": "COc1ccc(C(=O)/C=C/c2ccc(OCCSCCCCCCCCCCSCCOc3ccc(/C=C/C(=O)c4ccc(OC)c(OC)c4)cc3)cc2)cc1OC", "TGI": "> 100 µM"}
{"compound": "O=C1CSC(c2c[nH]c3ccccc23)N1c1ccccc1[N+](=O)[O-] (stereo unspecified)", "TGI": "> 100 µM"}
{"compound": "C1CC[C@H]2SSC3CCCC[C@H]3SSC2C1 (stereo partly specified)", "TGI": "> 100 µM"}
{"compound": "N/N=c1\\c2ccccc2c2cc3c(cc12)/c(=N/N)c1ccccc13", "TGI": "> 100 µM"}
{"compound": "Ic1cc2c(cc1C1SCCCS1)OCO2", "TGI": "> 100 µM"}
{"compound": "Cn1cc(C2=C(c3cn(C)c4ccccc34)C(=O)NC2=O)c2ccccc21", "TGI": "> 25 µM"}
{"compound": "COC(=O)C1=C(C(=O)OC)C2(C)Nc3ccccc3C2=C(c2ccccc2)C1 (stereo unspecified)", "TGI": "30.3 µM"}

Challenge: Look up TGI: `OCc1ccc(N2CCc3ccccc3C2)cc1Cl`
Response given: 40.1 µM

Challenge: May I ask what TGI has been recorded for `CCOC(=O)C(=O)/C(=C/N1C(=O)CC(=O)NC1=S)C(=O)OCC` ?
Response given: > 100 µM

Challenge: // lookup TGI for `O=C1C=CC(=O)c2c1ccc1c3ccccc3n(Cc3cccc([N+](=O)[O-])c3)c21`
Response given: > 100 µM

Challenge: Which TGI is reported for this compound? `COc1ccc2[nH]c3c(C)c4ccnc(NCCCN(C)CCCNc5ccc6ncn7c8ccccc8c(=O)c5c67)c4c(C)c3c2c1`
Response given: 4.65 µM

Challenge: Quick one: TGI of `CC(C)NC(=O)CCN(C(=O)O)S(=O)(=O)c1ccc(NC(=O)c2ccccc2)cc1` ?
Response given: > 100 µM

Challenge: For the compound shown here, `CC(C)(C)c1cc2c(O)c(c1)Cc1cc(C(C)(C)C)cc(c1O)Cc1cc(C(C)(C)C)cc(c1O)Cc1cc(C(C)(C)C)cc(c1O)Cc1cc(C(C)(C)C)cc(c1O)Cc1cc(C(C)(C)C)cc(c1O)Cc1cc(C(C)(C)C)cc(c1O)Cc1cc(C(C)(C)C)cc(c1O)C2` , give the reported TGI.
Response given: > 50 µM

---

System: SF-539 CNS
protocol.description: NCI tumour cell line growth inhibition, 48 h
Entries annotated with measured TGI
Give a bare numeral; the unit µM is implied.

{"compound": "Cc1cccc(-c2cc(=O)c3c(C)cc(C)nc3[nH]2)c1", "TGI, µM": 12.1}

Could you now look at the following compound, please?
Challenge: Please look up its TGI: Clc1cc(Cl)cc(N2N=C(c3cccc(Nc4ccncc4)c3)CC2c2ccc3c(c2)OCO3)c1 (centres undefined)
Response given: 3.31

---

Consider the following compounds and their measured GI50 readings.
Test system: SF-295 CNS
protocol.description: NCI tumour cell line growth inhibition, 48 h

Challenge: State the recorded GI50 for this entry: CCCCCCCCCCCCOC1C(CNC(=O)C2OC3OC(C)(C)OC3C2NC(=O)Nc2ccc(CC(=O)NC(Cc3ccccc3)C(=O)O)cc2)OC2OC(C)(C)OC21 (configuration not stated)
Response given: > 25000 nM

Challenge: What value of GI50 has been recorded for this entry: `Cc1c(O)c2c(c(O)c1Br)C(=O)C=CC2=O`
Response given: 14000 nM

Challenge: What value of measured GI50 is listed for `COc1cc(C(=O)Nc2cc(OC)c3ccn(C)c3c2)cc2c1C[C@]1(C)CC[C@@H](O)C(C)(C)[C@H]1O2` ?
Response given: 30.2 nM

Challenge: I would be grateful if you could share the reported GI50 for `O=C(Nc1n[nH]c2nnc(-c3cccnc3)cc12)C1CC1` .
Response given: 338 nM

Challenge: Look at this compound and give its reported GI50. `NC(N)=N/N=C/c1ccc(-c2ccc(-c3cc(Cl)cc(Cl)c3)s2)cc1`
Response given: 1840 nM

Challenge: Fill blank: measured GI50 of the compound NCC1OC(OC2C(CO)OC(OC3C(O)C(N)CC(N)C3OC3OC(CO)C(O)CC3N)C2O)C(N)C(O)C1OC1OC(CO)C(O)C(O)C1O (configuration not stated) is ____.
Response given: > 50 µg/mL

Challenge: Give its GI50 value. Item: `CCOc1cccc(-c2nc(N)nc(Nc3ccccc3SSc3ccccc3Nc3nc(N)nc(-c4cccc(OCC)c4)n3)n2)c1`
Response given: 3920 nM
